Data provenance is patent US6737383B1.

# Test system: morningglory
# Measurement Notes: Test B pre/postemergence morningglory
# Assay type: in vivo, Ipomoea hederacea
# Experimental Conditions: Rate 250 g/ha, Postemergence; scale 0 to 10, 0 is no effect, 10 is complete control
Readout Label: Plant response rating, Morningglory

INSERT INTO measurements (compound, measured_on, readout_label, measured_value) VALUES
  ('Cc1nsc(C)c1-n1c(=O)on(C(=O)N(c2ccc(F)cc2)C(C)C)c1=O [Compound 157]', 'morningglory', 'Plant response rating, Morningglory', 1),
  ('CCN(CC)C(=O)n1oc(=O)n(Cc2ccccc2)c1=O [Compound 152]', 'morningglory', 'Plant response rating, Morningglory', 0),
  ('Cc1nsc(C)c1-n1c(=O)on(C(=O)N(c2ccc(Cl)cc2)C(C)C)c1=O [Compound 159]', 'morningglory', 'Plant response rating, Morningglory', 3),
  ('CC(C)N(C(=O)n1oc(=O)n(-c2cnn(C)c2)c1=O)c1ccccc1 [Compound 123]', 'morningglory', 'Plant response rating, Morningglory', 10),
  ('C=CCn1c(=O)on(C(=O)N(c2ccc(F)cc2)C2CC2)c1=O [Compound 154]', 'morningglory', 'Plant response rating, Morningglory', 1),
  ('CC(C)N(C(=O)n1oc(=O)n([C@@H](C)c2ccccc2)c1=O)c1ccc(F)cc1 [Compound 167]', 'morningglory', 'Plant response rating, Morningglory', 5);

---

# Tested on: cocklebur
# Measurement Notes: Test B pre/postemergence cocklebur
# Type: in vivo, Xanthium strumarium
# Experimental Conditions: Rate 250 g/ha, Postemergence; scale of 0 to 10 where 0 is no effect and 10 is complete control
Readout Label: Plant response rating, Cocklebur

INSERT INTO assay_data (molecule, measured_on, measured_value) VALUES
  ('CC(C)N(C(=O)n1oc(=O)n(C(C)C(=O)c2ccccc2)c1=O)c1ccccc1 (stereo not drawn)', 'cocklebur', 0),
  ('CC(C)N(C(=O)n1oc(=O)n(CCC(F)(F)F)c1=O)c1ccc(F)cc1F', 'cocklebur', 2),
  ('COCn1c(=O)on(C(=O)N(c2ccc(F)cc2)C(C)C)c1=O', 'cocklebur', 0),
  ('Cc1noc(C)c1Cn1c(=O)on(C(=O)N(c2ccccc2)C(C)C)c1=O', 'cocklebur', 2),
  ('Cc1cccc(C)c1-n1c(=O)on(C(=O)N(C(C)C)C2C=CCCC2)c1=O (stereo not drawn)', 'cocklebur', 0),
  ('CC(C)N(C(=O)n1oc(=O)n(CCC2OCCO2)c1=O)c1ccccc1', 'cocklebur', 0);

---

A collection of molecules and their measured Plant response rating, Green foxtail
# Tested on: green foxtail
# Measurement Notes: Test E green foxtail
# Type: in vivo, Setaria viridis
# Experimental Conditions: Preemergence; Rate 1000 g/ha; 0 to 100 scale where 0 is no effect and 100 is complete control
Readout Label: Plant response rating, Green foxtail

INSERT INTO assay_data (molecule, readout_label, measured_value) VALUES
  ('CC(C)N(C(=O)n1oc(=O)n(-c2ccc(OC(F)(F)F)cc2)c1=O)c1ccc(F)cc1 [Compound 202]', 'Plant response rating, Green foxtail', 100),
  ('CC(C)N(Cc1ccccc1)C(=O)n1oc(=O)n(C(C)C)c1=O [Compound 165]', 'Plant response rating, Green foxtail', 65),
  ('CC(C)N(C(=O)n1oc(=O)n(Cc2cccs2)c1=O)c1ccc(F)cc1F [Compound 86]', 'Plant response rating, Green foxtail', 100),
  ('Cc1ccc(N(C(=O)n2oc(=O)n(-c3ccccc3C)c2=O)C(C)C)cc1 [Compound 40]', 'Plant response rating, Green foxtail', 90);
